Would you kindly list IC50 for each of these molecules?
System: THP-1
test-name: Cytotoxicity against human THP1 cells after 3 days by luminescence assay
Format: cell-based
details: THP-1, 72 h
Answers are plain numbers, in µM.

*Q* Dear colleague, I am looking for the recorded IC50 of the following molecule: "O=C(CCn1cnc([N+](=O)[O-])n1)Nc1ccc(Oc2ccc(Cl)cc2)cc1"
*A* 14

# ---- query molecule ----
*Q* Dear colleague, I am looking for the recorded IC50 of the following molecule: "O=C(Cn1cnc([N+](=O)[O-])n1)Nc1ccc(Cc2ccccc2)cc1"
*A* 47

* * *

test-name: Solubility of compound in Middlebrook 7H9 broth media at pH 6.4 at 200 uM after 90 mins by UV-VIS spectrophotometric method
Assay type: physicochemical
details: buffer, pH 6.4, 1.5 h
measured-quantity: solubility

Take a look at these entries with their results.
*Q* Dear colleague, I am looking for the recorded solubility of the following molecule: "O=C(Cn1cnc([N+](=O)[O-])n1)Nc1nc(-c2ccc(Cl)cc2)cs1"
*A* Insoluble

*Q* Dear colleague, I am looking for the recorded solubility of the following molecule: "O=C(CCCN1CCC(O)(c2ccc(Cl)cc2)CC1)c1ccc(F)cc1"
*A* Insoluble

*Q* Dear colleague, I am looking for the recorded solubility of the following molecule: "O=C(NCCCCn1cnc([N+](=O)[O-])n1)c1nc2ccccc2s1"
*A* Soluble

*Q* Dear colleague, I am looking for the recorded solubility of the following molecule: "Cc1nc([N+](=O)[O-])cn1CCCNC(=O)c1cc2ccccc2s1"
*A* Soluble

*Q* Dear colleague, I am looking for the recorded solubility of the following molecule: "O=C(NCCCn1cnc([N+](=O)[O-])n1)c1cc2ccccc2s1"
*A* Insoluble

Look at each molecule and report its solubility.
1. Cc1nc([N+](=O)[O-])cn1CCCNC(=O)c1sc2ccccc2c1Cl
2. CC(=O)N1CCN(c2ccc(OCC3COC(Cn4ccnc4)(c4ccc(Cl)cc4Cl)O3)cc2)CC1 (centres undefined)
3. Cc1ccoc1C(=O)NCCCn1cnc([N+](=O)[O-])n1
4. COCCc1ccc(OCC(O)CNC(C)C)cc1.COCCc1ccc(OCC(O)CNC(C)C)cc1.O=C(O)/C=C/C(=O)O (racemic) [METOPROLOL FUMARATE]

*A*
1. Soluble
2. Insoluble
3. Soluble
4. Soluble

The origin of these recorded values is ChEMBL document CHEMBL4177599.
